ASSAY_COMMENT: Cytotoxicity against human THLE-3 cells assessed as reduction in cell viability measured after 48 hrs by AlamarBlue assay
Assay type: cell-based
CONDITION_LABEL: thle-3, 48 h
Overview of reported CC50 across a group of compounds:
// return numeric value only (unit: µM, not printed)

Worked cases, CC50 given:
Name the recorded CC50 for COc1ccc(S(=O)(=O)Nc2ccc3oc(-c4ccc(NS(=O)(=O)c5cc(F)ccc5OC)cc4)nc3c2)cc1 . 25

Name the recorded CC50 for COc1ccc(S(=O)(=O)Nc2ccc3oc(-c4ccc(NC(=O)c5cccc(C)c5[N+](=O)[O-])cc4)nc3c2)cc1 . 22

Name the recorded CC50 for COc1ccc(S(=O)(=O)Nc2ccc3oc(-c4ccc(NS(=O)(=O)c5cc(Br)ccc5OC)cc4)nc3c2)cc1 . 16

Name the recorded CC50 for COc1ccc(S(=O)(=O)Nc2ccc3oc(-c4ccc(NC(=O)c5ccc(Cl)s5)cc4)nc3c2)cc1 . 57

Continuing:
Name the recorded CC50 for COc1ccc(S(=O)(=O)Nc2ccc3oc(-c4ccc(NC(=O)C5CCN(C(C)=O)CC5)cc4)nc3c2)cc1 . 31

---

ASSAY_COMMENT: Cytotoxicity against human FHs74Int cells assessed as reduction in cell viability measured after 48 hrs by AlamarBlue assay
Assay type: cell-based
VALUE_KIND: CC50

Worked cases, CC50 given:
Name the recorded CC50 for O=C(Nc1ccc(Sc2nc3ccccc3s2)cc1)c1cc(Br)cc(Br)c1O . 75 µM

Name the recorded CC50 for O=S(=O)(Nc1ccc(-c2nc3cc(NS(=O)(=O)c4cccc5ccccc45)ccc3o2)cc1)c1cccc2ccccc12 . 52 µM

Name the recorded CC50 for COc1ccc(S(=O)(=O)Nc2ccc3oc(-c4ccc(NC(=O)c5cccc(C)c5[N+](=O)[O-])cc4)nc3c2)cc1 . > 100 µM

Name the recorded CC50 for O=S(=O)(Nc1ccc(-c2nc3cc(NS(=O)(=O)c4ccc(C(F)(F)F)cc4)ccc3o2)cc1)c1ccc(C(F)(F)F)cc1 . 69 µM

Name the recorded CC50 for COc1ccc(S(=O)(=O)Nc2ccc3oc(-c4ccc(NC(=O)C5CCN(C(C)=O)CC5)cc4)nc3c2)cc1 . 84 µM

Continuing:
Name the recorded CC50 for COc1ccc(S(=O)(=O)Nc2ccc3oc(-c4ccc(NC(=O)c5ccc(Cl)s5)cc4)nc3c2)cc1 . > 100 µM

Name the recorded CC50 for O=S(=O)(Nc1ccc(-c2nc3cc(NS(=O)(=O)c4ccc(Cl)s4)ccc3o2)cc1)c1ccc(Cl)c(C(F)(F)F)c1 . 56 µM

Name the recorded CC50 for O=C(Nc1ccc(Sc2nc3ccccc3s2)cc1)c1cccc(Br)c1O . 75 µM

Name the recorded CC50 for COc1c(Br)cccc1C(=O)Nc1ccc(Sc2nc3ccccc3s2)c(Cl)c1 . > 100 µM

---

Test system: HCT-116
ASSAY_COMMENT: Inhibition of cell migration in human HCT-116 cells measured at 72 hrs by scratch wound healing assay based phase contrast microscopy
Assay type: functional
CONDITION_LABEL: HCT-116, 72 h
VALUE_KIND: EC50 (µM)
// return numeric value only (unit: µM, not printed)

Name the recorded EC50 for Cc1ccc(S(=O)(=O)Nc2ccc(-c3nc4cc(NS(=O)(=O)c5ccc(C)cc5)ccc4o3)cc2)cc1 . 9

Name the recorded EC50 for COc1c(Br)cccc1C(=O)Nc1ccc(Sc2nc3ccccc3s2)c(Cl)c1 . 5.5

Name the recorded EC50 for O=C(Nc1ccc(Sc2nc3ccccc3s2)c(Cl)c1)c1cccc(Br)c1O . 2

Continuing:
Name the recorded EC50 for COc1ccc(S(=O)(=O)Nc2ccc3oc(-c4ccc(NC(=O)c5cccc(C)c5[N+](=O)[O-])cc4)nc3c2)cc1 . 2.3

Name the recorded EC50 for COc1ccc(S(=O)(=O)Nc2ccc3oc(-c4ccc(NC(=O)c5ccc(Cl)s5)cc4)nc3c2)cc1 . 5.7

---

ASSAY_COMMENT: Cytotoxicity against human THLE-3 cells assessed as reduction in cell viability measured after 48 hrs by AlamarBlue assay
Assay type: cell-based
CONDITION_LABEL: THLE-3 cells
Overview of reported CC50 at 48 h across a group of compounds:
// return numeric value only (unit: µM, not printed)

Name the recorded CC50 at 48 h for O=S(=O)(Nc1ccc(-c2nc3cc(NS(=O)(=O)c4ccc(Br)cc4)ccc3o2)cc1)c1ccc(Br)cc1 . 18

Name the recorded CC50 at 48 h for O=S(=O)(Nc1ccc(-c2nc3cc(NS(=O)(=O)c4ccccc4)ccc3o2)cc1)c1ccccc1 . 23

Continuing:
Name the recorded CC50 at 48 h for O=S(=O)(Nc1ccc(-c2nc3cc(NS(=O)(=O)c4cccc5ccccc45)ccc3o2)cc1)c1cccc2ccccc12 . 49

---

ASSAY_COMMENT: Cytotoxicity against human FHs74Int cells assessed as reduction in cell viability measured after 48 hrs by AlamarBlue assay
Assay type: cell-based
Overview of reported CC50 across a group of compounds:

Name the recorded CC50 for Nc1ccc(S(=O)(=O)Nc2ccc(-c3nc4cc(NS(=O)(=O)c5ccc(N)cc5)ccc4o3)cc2)cc1 . 53 µM

Name the recorded CC50 for O=S(=O)(Nc1ccc(-c2nc3cc(NS(=O)(=O)c4ccccc4)ccc3o2)cc1)c1ccccc1 . > 100 µM

Name the recorded CC50 for O=S(=O)(Nc1ccc(-c2nc3cc(NS(=O)(=O)c4ccc(Cl)s4)ccc3o2)cc1)c1ccc(Cl)s1 . 65 µM

Name the recorded CC50 for O=S(=O)(Nc1ccc(-c2nc3cc(NS(=O)(=O)c4ccccc4Cl)ccc3o2)cc1)c1ccccc1Cl . 38 µM

Continuing:
Name the recorded CC50 for O=S(=O)(Nc1ccc(-c2nc3cc(NS(=O)(=O)c4ccc(F)cc4)ccc3o2)cc1)c1ccc(F)cc1 . 63 µM

Name the recorded CC50 for COc1ccc(S(=O)(=O)Nc2ccc(-c3nc4cc(NS(=O)(=O)c5ccc(OC)cc5)ccc4o3)cc2)cc1 . 40 µM

Name the recorded CC50 for Cc1ccc(S(=O)(=O)Nc2ccc(-c3nc4cc(NS(=O)(=O)c5ccc(C)cc5)ccc4o3)cc2)cc1 . 74 µM

Name the recorded CC50 for COc1ccc(S(=O)(=O)Nc2ccc3oc(-c4ccc(NS(=O)(=O)c5cc(Br)ccc5OC)cc4)nc3c2)cc1 . > 100 µM

---

Overview of reported CC50 across a group of molecules:
Test system: FHC
ASSAY_COMMENT: Cytotoxicity against human FHC cells assessed as reduction in cell viability measured after 48 hrs by AlamarBlue assay
Assay type: cell-based
// return numeric value only (unit: µM, not printed)

Name the recorded CC50 for O=S(=O)(Nc1ccc(-c2nc3cc(NS(=O)(=O)c4cccc(C(F)(F)F)c4)ccc3o2)cc1)c1cccc(C(F)(F)F)c1 . 56

Continuing:
Name the recorded CC50 for O=S(=O)(Nc1ccc(-c2nc3cc(NS(=O)(=O)c4ccccc4)ccc3o2)cc1)c1ccccc1 . 30

Name the recorded CC50 for O=S(=O)(Nc1ccc(-c2nc3cc(NS(=O)(=O)c4ccc(F)cc4)ccc3o2)cc1)c1ccc(F)cc1 . 27

---

Overview of reported CC50 across a group of compounds:
System: FHC
ASSAY_COMMENT: Cytotoxicity against human FHC cells assessed as reduction in cell viability measured after 48 hrs by AlamarBlue assay
Assay type: cell-based
// return numeric value only (unit: µM, not printed)

Worked cases, CC50 given:
Recorded CC50 for Cc1ccc(S(=O)(=O)Nc2ccc(-c3nc4cc(NS(=O)(=O)c5ccc(C)cc5)ccc4o3)cc2)cc1 with FHC, please? 51

Recorded CC50 for O=S(=O)(Nc1ccc(-c2nc3cc(NS(=O)(=O)c4ccc(Cl)s4)ccc3o2)cc1)c1ccc(Cl)s1 with FHC, please? 43

Recorded CC50 for COc1ccc(S(=O)(=O)Nc2ccc(-c3nc4cc(NS(=O)(=O)c5ccc(OC)cc5)ccc4o3)cc2)cc1 with FHC, please? 57

Next, consider the following compound.
Recorded CC50 for O=S(=O)(Nc1ccc(-c2nc3cc(NS(=O)(=O)c4ccc(Cl)s4)ccc3o2)cc1)c1ccc(Cl)c(C(F)(F)F)c1 with FHC, please? 63

---

Overview of reported IC50 across a group of compounds:
TESTED_ON: E. coli GroEL/ES (Escherichia coli)
Sequence (P0A6F5 whole entry, looked up): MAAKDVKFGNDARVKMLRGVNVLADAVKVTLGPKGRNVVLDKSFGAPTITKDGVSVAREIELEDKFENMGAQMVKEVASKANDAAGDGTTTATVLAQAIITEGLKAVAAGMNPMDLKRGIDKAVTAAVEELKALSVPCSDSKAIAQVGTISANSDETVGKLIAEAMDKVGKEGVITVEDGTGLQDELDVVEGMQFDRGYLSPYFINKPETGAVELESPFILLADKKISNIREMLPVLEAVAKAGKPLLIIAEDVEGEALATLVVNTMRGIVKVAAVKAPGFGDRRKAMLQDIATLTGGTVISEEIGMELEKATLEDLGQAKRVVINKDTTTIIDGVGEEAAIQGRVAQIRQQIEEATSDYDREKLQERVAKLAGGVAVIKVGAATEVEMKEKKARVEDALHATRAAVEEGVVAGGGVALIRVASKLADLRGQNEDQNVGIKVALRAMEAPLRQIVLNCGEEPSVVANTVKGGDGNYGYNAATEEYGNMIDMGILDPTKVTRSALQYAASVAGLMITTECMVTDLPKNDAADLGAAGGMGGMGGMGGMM
ASSAY_COMMENT: Inhibition of Escherichia coli GroEL/ES-mediated refolding of the denatured malate dehydrogenase
Type: protein-complex assay
// return numeric value only (unit: µM, not printed)

Worked cases, IC50 given:
Name the recorded IC50 for COc1ccc(S(=O)(=O)Nc2ccc3oc(-c4ccc(NS(=O)(=O)c5cc(Br)ccc5OC)cc4)nc3c2)cc1 . 27

Name the recorded IC50 for O=S(=O)(Nc1ccc(-c2nc3cc(NS(=O)(=O)c4ccccc4Cl)ccc3o2)cc1)c1ccccc1Cl . 40

Name the recorded IC50 for O=C(Nc1ccc(Sc2nc3ccccc3s2)cc1)c1cc(Br)cc(Br)c1O . 3.2

Name the recorded IC50 for Cc1ccc(S(=O)(=O)Nc2ccc(-c3nc4ccc(NS(=O)(=O)c5ccc(C)cc5)cc4[nH]3)cc2)cc1 . 24

Continuing:
Name the recorded IC50 for COc1ccc(S(=O)(=O)Nc2ccc3oc(-c4ccc(NS(=O)(=O)c5cc(F)ccc5OC)cc4)nc3c2)cc1 . 18

Name the recorded IC50 for O=S(=O)(Nc1ccc(-c2nc3cc(NS(=O)(=O)c4ccc(Cl)s4)ccc3o2)cc1)c1ccc(Cl)c(C(F)(F)F)c1 . 2.8

Name the recorded IC50 for O=S(=O)(Nc1ccc(-c2nc3cc(NS(=O)(=O)c4ccc(C(F)(F)F)cc4)ccc3o2)cc1)c1ccc(C(F)(F)F)cc1 . 19

Name the recorded IC50 for COc1ccc(S(=O)(=O)Nc2ccc3oc(-c4ccc(NC(=O)c5cccc(C)c5[N+](=O)[O-])cc4)nc3c2)cc1 . 33

Name the recorded IC50 for COc1c(Br)cccc1C(=O)Nc1ccc(Sc2nc3ccccc3s2)c(Cl)c1 . 37

Name the recorded IC50 for COc1ccc(S(=O)(=O)Nc2ccc(-c3nc4cc(NS(=O)(=O)c5ccc(OC)cc5)ccc4o3)cc2)cc1 . 30

Name the recorded IC50 for O=C(Nc1ccc(Sc2nc3ccccc3s2)cc1)c1cccc(Br)c1O . 42

Name the recorded IC50 for O=S(=O)(Nc1ccc(-c2nc3cc(NS(=O)(=O)c4ccc(Br)cc4)ccc3o2)cc1)c1ccc(Br)cc1 . 16
